meta.source: ChEMBL document CHEMBL3885881

Provide the recorded POTASSIUM for the entries that follow.
organism: Rattus norvegicus; test: DrugMatrix - Regimen: Daily Repeat; type: toxicity, organism-based, Sprague-Dawley; design: regimen Daily Repeat, gender Male, age 6-8 weeks; settings: in vivo, po, 100 mg/kg, 120 h, tissue Plasma, route oral GAVAGE, dose level Low, time 5 day, vehicle .5 % CMC
Answer with the figure and its unit, nothing else.

A selection of reference data follows.
MOLECULE	PROPERTY_MEASURED	MEASUREMENT
CC=Cc1ccc(O)c(OC)c1	POTASSIUM	6.1 MEQ/L
C#C[C@]1(O)CC[C@H]2[C@@H]3CCC4=Cc5oncc5C[C@]4(C)[C@H]3CC[C@@]21C	POTASSIUM	6.55 MEQ/L
CC[C@]1(O)CC[C@H]2[C@@H]3CCC4=CCCC[C@@H]4[C@H]3CC[C@@]21C	POTASSIUM	7.33 MEQ/L

Switching to the query record.
Query: Which POTASSIUM is listed for Nc1nc2c(c(=O)[nH]1)N(C=O)C(CNc1ccc(C(=O)N[C@@H](CCC(=O)O)C(=O)O)cc1)CN2 (some centres undefined) ?
Reply: 6.61 MEQ/L

----------
Can you tell me ABSOLUTE BASOPHIL for the items I'm about to list?
species: Rattus norvegicus; assay: DrugMatrix - Regimen: Daily Repeat; type: toxicity, organism-based, Sprague-Dawley; parameters: regimen Daily Repeat, gender Male, age 6-8 weeks; settings: in vivo, po, 0 mg/kg, 72 h, tissue Blood, route oral GAVAGE, dose level Control, time 3 day, vehicle .5 % CMC
Answers are plain numbers, in CELLS/uL.

The cases that follow already have their ABSOLUTE BASOPHIL on record.
MOLECULE	PROPERTY_MEASURED	MEASUREMENT
CN1C(=O)CN=C(c2ccccc2)c2cc(Cl)ccc21	ABSOLUTE BASOPHIL	0
COc1ccc(/C=C/C(=O)Nc2ccccc2C(=O)O)cc1OC	ABSOLUTE BASOPHIL	0

With those in mind, consider the next molecule.
Query: Look up ABSOLUTE BASOPHIL: CC(C(=O)O)c1ccc(-c2ccccc2)c(F)c1 (stereo not drawn)
Reply: 0

----------
organism: Rattus norvegicus; test: DrugMatrix - Regimen: Daily Repeat; format: toxicity, organism-based, Sprague-Dawley; set-up: regimen Daily Repeat, gender Male, age 6-8 weeks; details: in vivo, po, 100 mg/kg, 72 h, tissue Plasma, route oral GAVAGE, dose level Low, time 3 day, vehicle .5 % CMC
PROPERTY_MEASURED: TOTAL BILIRUBIN (mg/dL)
Numbers only, in mg/dL.

Solved entries (count: 3):
MOLECULE	MEASURE_UNIT	TOTAL BILIRUBIN
C#C[C@]1(O)CC[C@H]2[C@@H]3CCC4=Cc5oncc5C[C@]4(C)[C@H]3CC[C@@]21C	mg/dL	0.2
CC[C@]1(O)CC[C@H]2[C@@H]3CCC4=CCCC[C@@H]4[C@H]3CC[C@@]21C	mg/dL	0.47
CC=Cc1ccc(O)c(OC)c1	mg/dL	0.23

Here is another molecule to look at.
Query: So what does the record say about TOTAL BILIRUBIN for Nc1nc2c(c(=O)[nH]1)N(C=O)C(CNc1ccc(C(=O)N[C@@H](CCC(=O)O)C(=O)O)cc1)CN2 (some centres undefined) ?
Reply: 0.3

----------
For each record, write down the corresponding ASPARTATE AMINOTRANSFERASE.
species on record: Rattus norvegicus; experiment: DrugMatrix - Regimen: Daily Repeat; assay type: toxicity, organism-based, Sprague-Dawley; design: regimen Daily Repeat, gender Male, age 6-8 weeks; conditions: in vivo, po, 0 mg/kg, 72 h, tissue Plasma, route oral GAVAGE, dose level Control, time 3 day, vehicle .5 % CMC
Give bare numbers, in u/L.

Field: example entries. Status: answers known.
COMPOUND	ASPARTATE AMINOTRANSFERASE (u/L)
CCCCC1C(=O)N(c2ccccc2)N(c2ccccc2)C1=O [PHENYLBUTAZONE]	95.17
Cc1cnc(C(=O)NCCc2ccc(S(=O)(=O)NC(=O)NC3CCCCC3)cc2)cn1 [GLIPIZIDE]	112.83
CC(=O)O[C@]1(C(C)=O)CC[C@H]2[C@@H]3C=C(Cl)C4=CC(=O)[C@@H]5C[C@@H]5[C@]4(C)[C@H]3CC[C@@]21C [CYPROTERONE ACETATE]	112.83

I need ASPARTATE AMINOTRANSFERASE for every entry listed below, if you could help.
1. C[C@@H]1CC[C@H]2[C@@H](C)C(=O)O[C@@H]3O[C@@]4(C)CC[C@@H]1[C@]32OO4 [ARTEMISININ]
2. C[C@@H](O)[C@H]1C(=O)N2C(C(=O)O)=C(S[C@@H]3CN[C@H](C(=O)N(C)C)C3)[C@H](C)[C@H]12 [MEROPENEM]
3. CC(C)(Sc1cc(C(C)(C)C)c(O)c(C(C)(C)C)c1)Sc1cc(C(C)(C)C)c(O)c(C(C)(C)C)c1 [PROBUCOL]
4. CN1C(=O)CN=C(c2ccccc2)c2cc(Cl)ccc21 [DIAZEPAM]
5. COc1ccc(/C=C/C(=O)Nc2ccccc2C(=O)O)cc1OC
6. CC[C@]1(O)CC[C@H]2[C@@H]3CCC4=CCCC[C@@H]4[C@H]3CC[C@@]21C
7. COc1ccccc1OCC(O)COC(N)=O (configuration not stated) [METHOCARBAMOL]

Reply:
[108.17, 81.17, 81.17, 82.17, 81.17, 78.33, 108.17]

Batch request: ASPARTATE AMINOTRANSFERASE per item, same order as input.
1. Clc1cc2c(cc1Cl)Oc1cc(Cl)c(Cl)cc1O2 [2,3,7,8-TETRACHLORODIBENZO-P-DIOXIN]
2. CCOC(=O)[C@H](CCc1ccccc1)N[C@@H](C)C(=O)N1Cc2ccccc2C[C@H]1C(=O)O
3. C[C@]12C/C(=C/O)C(=O)C[C@@H]1CC[C@@H]1[C@@H]2CC[C@@]2(C)[C@H]1CC[C@]2(C)O [OXYMETHOLONE]

Reply:
71.67
112.83
68

Please look at the items below and tell me ASPARTATE AMINOTRANSFERASE for each one, in order.
1. C=C(CC)C(=O)c1ccc(OCC(=O)O)c(Cl)c1Cl [ETHACRYNIC ACID]
2. O=c1cc(-c2ccccc2)oc2ccc3ccccc3c12 [BETA-NAPHTHOFLAVONE]
3. CC(C(=O)O)c1ccc(-c2ccccc2)c(F)c1 (configuration not stated) [FLURBIPROFEN]
4. Nc1cccc(Cl)c1 [3-CHLOROANILINE]

Reply:
1: 69.83; 2: 71.67; 3: 81.17; 4: 72.5

----------
Record form. Attribute: ERYTHROCYTE COUNT. Fill in for each entry.
species: Rattus norvegicus; assay: DrugMatrix - Regimen: Daily Repeat; format: toxicity, organism-based, Sprague-Dawley; design: regimen Daily Repeat, gender Male, age 6-8 weeks; details: in vivo, po, 100 mg/kg, 120 h, tissue Blood, route oral GAVAGE, dose level Low, time 5 day, vehicle .5 % CMC
Give bare numbers, in x10E6/uL.

COMPOUND	ERYTHROCYTE COUNT / x10E6/uL
C#C[C@]1(O)CC[C@H]2[C@@H]3CCC4=Cc5oncc5C[C@]4(C)[C@H]3CC[C@@]21C	5.51
CC=Cc1ccc(O)c(OC)c1	5.9

// for each compound below, give its ERYTHROCYTE COUNT
1. Nc1nc2c(c(=O)[nH]1)N(C=O)C(CNc1ccc(C(=O)N[C@@H](CCC(=O)O)C(=O)O)cc1)CN2 (some centres undefined)
2. CC[C@]1(O)CC[C@H]2[C@@H]3CCC4=CCCC[C@@H]4[C@H]3CC[C@@]21C

Reply:
5.54
6.95

----------
species on record: Rattus norvegicus; experiment: DrugMatrix - Regimen: Daily Repeat; assay type: toxicity, organism-based, Sprague-Dawley; design: regimen Daily Repeat, gender Male, age 6-8 weeks; conditions: in vivo, po, 0 mg/kg, 72 h, tissue Blood, route oral GAVAGE, dose level Control, time 3 day, […]
PROPERTY_MEASURED: MEAN CORPUSCULAR HEMOGLOBIN (pg)
Answers are plain numbers, in pg.

COMPOUND	MEAN CORPUSCULAR HEMOGLOBIN, pg
COc1ncnc(NS(=O)(=O)c2ccc(N)cc2)c1OC	23.98
CC(CCc1ccc(O)cc1)NCCc1ccc(O)c(O)c1 (centres undefined)	21.33
CN(CCOc1ccc(CC2SC(=O)NC2=O)cc1)c1ccccn1 (centres undefined)	25.37

Query: Can you look up the measured MEAN CORPUSCULAR HEMOGLOBIN of CC[C@H](C)C(=O)O[C@H]1C[C@H](O)C=C2C=C[C@H](C)[C@H](CC[C@@H](O)C[C@@H](O)CC(=O)O)[C@H]21 for me?
Reply: 25.37
